Data provenance is patent US11472844B2.

PROTOCOL DESCRIPTION: Analytical gel filtration (size exclusion chromatography)
Format: physicochemical
RUN CONDITIONS: phosphate buffer, vs theoretical MW

SUBSTANCE | oligomeric organization
MUB40#2: overlapping 40-amino acid peptide covering the MUB70 sequence (CGYTDETIPYSTAEGIKKFEGDGYELFKDNFPAGEKFDNDD; MUB40-2 probe with Cysteine at N-terminal extremity) | tetramers
MUB40#4: overlapping 40-amino acid peptide covering the MUB70 sequence (CVHVQYIDGETDQMLRQDDLDGYTDETIPYSTAEGIKKFEG; MUB40-4 probe with Cysteine at N terminal extremity) | tetramers
MUB40#3: overlapping 40-amino acid peptide covering the MUB70 sequence (CDQMLRQDDLDGYTDETIPYSTAEGIKKFEGDGYELFKDNF; MUB40-3 probe with Cysteine at N terminal extremity) | tetramers

----------
PROTOCOL DESCRIPTION: Analytical gel filtration (size exclusion chromatography)
Format: physicochemical
RUN CONDITIONS: 20 mM phosphate buffer, 150 mM NaCl, pH7.4
Measured experimental Mr of individual entries
Field format: number, assumed kDa, no unit text.

SUBSTANCE | MEASUREMENT LABEL | UNITS | RECORDED MEASUREMENT
MUB40#3: overlapping 40-amino acid peptide covering the MUB70 sequence (CDQMLRQDDLDGYTDETIPYSTAEGIKKFEGDGYELFKDNF; MUB40-3 probe with Cysteine at N terminal extremity) | experimental Mr | kDa | 20.5
MUB40#2: overlapping 40-amino acid peptide covering the MUB70 sequence (CGYTDETIPYSTAEGIKKFEGDGYELFKDNFPAGEKFDNDD; MUB40-2 probe with Cysteine at N-terminal extremity) | experimental Mr | kDa | 22.0
MUB40#1: 40-amino acid L-peptide, MUB70 C-terminal part, with N-ter added cysteine; L counterpart of RI-MUB40 (CTAEGIKKFEGDGYELFKDNFPAGEKFDNDDTNDQFYTVIF; MUB40-1 probe with Cysteine at N-terminal extremity) | experimental Mr | kDa | 15.9

*Q* // query experimental Mr value for entry MUB40#4: overlapping 40-amino acid peptide covering the MUB70 sequence (CVHVQYIDGETDQMLRQDDLDGYTDETIPYSTAEGIKKFEG; MUB40-4 probe with Cysteine at N terminal extremity)
*A* 20.4

----------
PROTOCOL DESCRIPTION: Analytical gel filtration (size exclusion chromatography)
Format: physicochemical
RUN CONDITIONS: 10 μg/ml in 20 mM phosphate buffer, 150 mM NaCl, pH7.4
Measured relative masses estimated from standard proteins' elution volume of individual entries
Enter the number alone.

Recorded relative masses estimated from standard proteins' elution volume, per entry:
SUBSTANCE | RECORDED MEASUREMENT
MUB40#4: overlapping 40-amino acid peptide covering the MUB70 sequence (CVHVQYIDGETDQMLRQDDLDGYTDETIPYSTAEGIKKFEG; MUB40-4 probe with Cysteine at N terminal extremity) | 20.4
MUB40#1: 40-amino acid L-peptide, MUB70 C-terminal part, with N-ter added cysteine; L counterpart of RI-MUB40 (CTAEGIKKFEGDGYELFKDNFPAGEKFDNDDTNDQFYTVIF; MUB40-1 probe with Cysteine at N-terminal extremity) | 15.9
MUB40#3: overlapping 40-amino acid peptide covering the MUB70 sequence (CDQMLRQDDLDGYTDETIPYSTAEGIKKFEGDGYELFKDNF; MUB40-3 probe with Cysteine at N terminal extremity) | 20.5

Then there is this substance:
*Q* // query relative masses estimated from standard proteins' elution volume value for entry MUB40#2: overlapping 40-amino acid peptide covering the MUB70 sequence (CGYTDETIPYSTAEGIKKFEGDGYELFKDNFPAGEKFDNDD; MUB40-2 probe with Cysteine at N-terminal extremity)
*A* 22.0
